Taken from patent US20250381223A1.

I'd be grateful if you could share measured pKd for these entries.
Target: T1, CD28 (detection antigen of the BLI assay) (human, UniProt P10747 19-152, limits assumed)
T1 construct: also called the antigen
Test: BLI (GATOR); antibody loaded at 30 nM, antigen 300-37.5 nM
Kindly note that pKd refers to -log10 of the concentration in mol/L and answer with the value alone.

For the binder huVH1huVL1 (antibody, human IgG1, kappa, V domains shown, also called huVH1VL1; 9.3h11) VH: QVKLQESGPGLVKPSETLSITCTVSGFSLSDYGVHWVRQSPGKGLEWLGVIWAGGGTNYNSALMSRKTISKDNSKSQVFLKMSSLTAADTAVYYCARDKGYSYYYSMDYWGQGTTVTVSS VL: DIQLTQSPSSLSVSVGDRVTISCRASESVEYYVTSLMQWYQQKPGQAPKLLIFAASNVESGVPSRFSGSGSGTNFTLTISSVQEEDFAMYFCQQSRKVPYTFGGGTKLEIKR , give its reported pKd.
8.21

For the binder huVH4huVL2 (antibody, human IgG1, kappa, V domains shown) VH: QVQLQESGPGLVKPSETLSLTCTVSGFSLSDYGVHWIRQPPGKGLEWIGVIWAGGGTNYNSALKSRVTISVDTSKNQVSLKLSSVTAADTAVYYCARDKGYSYYYSMDYWGQGTTVTVSS VL: DIQLTQSPSSLSASVGDRVTITCRASESVEYYVTSLMQWYQQKPGKAPKLLIFAASNVESGVPSRFSGSGSGTNFTLTISSVQPEDFATYFCQQSRKVPYTFGGGTKLEIKR , give its reported pKd.
7.96

For the binder huVH5huVL2 (antibody, human IgG1, kappa, V domains shown) VH: QVQLQESGPGLVKPSETLSLTCTVSGFSISDYGVHWIRQPPGKGLEWIGVIWAGGGTNYNPSLKSRVTISVDTSKNQVSLKLSSVTAADTAVYYCARDKGYSYYYSMDYWGQGTTVTVSS VL: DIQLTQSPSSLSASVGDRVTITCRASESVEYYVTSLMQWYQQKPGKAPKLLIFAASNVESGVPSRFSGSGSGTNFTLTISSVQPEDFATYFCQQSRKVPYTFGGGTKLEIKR , give its reported pKd.
7.97
